Tested on: BT-549 breast
Test: NCI tumour cell line growth inhibition, 48 h; in the data active means GI50 below about 0.43 µM; inactive means the rest
Select the matching outcome among label 1 = active, label 0 = inactive

Consider the following illustrative entries.
>  <Molecule>
CCOC(=O)c1c2c(n3ccccc13)C(=O)c1ncccc1C2=O

>  <Assigned Label>
label 1

$$$$
>  <Molecule>
C=C1CC2(OC1=O)C(=O)Nc1ccccc12 (configuration not stated)

>  <Assigned Label>
label 0

$$$$
>  <Molecule>
CCN1CCN(CC(=O)N2c3cccc4cccc(c34)N(C(=O)CN3CCN(CC)CC3)C2c2cn(-c3ccccc3)nc2-c2cccc([N+](=O)[O-])c2)CC1

>  <Assigned Label>
label 0

$$$$
>  <Molecule>
NCCCNCCCCNC(=O)C(O)NC(=O)CCCCCCN=C(N)N (configuration not stated)

>  <Assigned Label>
label 0

$$$$

Qu. Short answer needed: outcome of this test for `COC(=O)CC[C@H](Cc1ccccc1)NC(=O)c1csc([C@@H](C[C@H](C(C)C)N(C)C(=O)[C@@H](NC(=O)[C@H]2CCCCN2C)C(C)C)OC(C)=O)n1` ?
Ans. label 1

Qu. Short answer needed: outcome of this test for `CCNC(=O)O[C@H]1CN[C@H](C#Cc2cc3ncnc(Nc4ccc(OCc5cccc(F)c5)c(Cl)c4)c3s2)C1` ?
Ans. label 0

Qu. Short answer needed: outcome of this test for `Cc1ccc(O)c(NC(=O)c2ccc(CNc3ccnc(C(F)(F)F)c3)cc2)c1` ?
Ans. label 0

---

Test system: SW-620 colon
Assay: NCI tumour cell line growth inhibition, 48 h
Listed here: items and their measured TGI.

Before answering, review these 5 worked examples.
>  <Molecule>
CC1(C)CCC[C@]2(C)[C@H]3[C@H](C#N)c4cc(O)c(O)cc4O[C@@]3(C)CC[C@@H]12

>  <Value Measured>
> 10 µM

$$$$
>  <Molecule>
COC(=O)c1c2cccccc-2c(Cc2c3cccccc-3c(C(=O)OC)c2O)c1O

>  <Value Measured>
> 100 µM

$$$$
>  <Molecule>
CCOC(=O)c1ccc(N=c2sc3ccccc3nc2Nc2ccc(C(=O)OCC)cc2)cc1

>  <Value Measured>
> 100 µM

$$$$
>  <Molecule>
Cc1cc(C)c(-n2c(-c3ccc(Br)cc3)cs/c2=N\N=C2C=C(C(C)(C)C)C(=O)C(C(C)(C)C)=C2)c(C)c1

>  <Value Measured>
> 100 µM

$$$$
>  <Molecule>
CC12CCC(Br)C(C)(C)C1CC=C1C(=O)OCC1O2 (stereo not drawn)

>  <Value Measured>
32.8 µM

$$$$

Qu. Recorded TGI for C=C1C2C[C@@H]3O[C@H]4C[C@H]5O[C@@]6(C[C@@H]7O[C@]8(C[C@H](C)[C@@H]9O[C@@H]%10CC(CO)O[C@@H]%10C[C@@H]9O8)C[C@H](C)[C@@H]7O6)C[C@H]5O[C@H]4[C@H](C)[C@H]3OC(=O)C[C@H]3CC[C@@H]4OC5[C@H]6O[C@]7(CC[C@H]8CC(=C)[C@H](CC[C@@H](C[C@H]1C)O2)O8)CC6O[C@@H]5[C@@H](O7)[C@H]4O3 (stereo partly drawn) with SW-620 colon, please?
Ans. > 1 µM

Qu. Recorded TGI for `C=CCc1cccc2cc(C(=O)Nc3ccccn3)c(=N)oc12` with SW-620 colon, please?
Ans. > 100 µM

Qu. Recorded TGI for `O=C1C(Cl)=C(Nc2ccc(S(=O)(=O)Nc3ccccn3)cc2)C(=O)c2ccccc21` with SW-620 colon, please?
Ans. > 73.5 µM
